- MEASUREMENT_NOTES: Primary qHTS for inhibitors of nuclear receptor binding SET domain protein 2 (NSD2) in an RCH-ACV wild type WT cells (2C) (AID 1645877); also: nearly all actives have a fitted effect of over 70% in size
- CONDITION_PARAMETERS: RCH-ACV (leukaemia line) NSD2 WT (2C) viability, CellTiter-Glo, 72 h; series mostly up to 44.9 µM
- Description: Assay Provider: Jonathan D. Licht, MD University of Florida College of Medicine, Gainesville, FL Mutations in epigenetic regulators are common in relapsed pediatric acute lymphoblastic leukemia (ALL). Here, we uncovered the mechanism underlying the relapse of ALL driven by an activating mutation of the NSD2 histone methyltransferase (p.E1099K). […] Correction of this mutation restored glucocorticoid sensitivity. […]
Records with an inconclusive call do not appear. Active and inactive are the calls of the source. Calls follow the shape of the dose curve; as a rule, active = well fitted inhibition curve with a large enough effect; inconclusive = small, poorly fitted or top-dose-only effect; inactive = no such curve, though single readings can be large or run the other way.
Please answer using one outcome listed in yes (1) (active), no (0) (inactive)

Sample answers from the record:
Cc1ccccc1OCC(O)CO (stereo not drawn) ... no (0)
O=C(O)CCNC(=O)c1ccccc1 ... no (0)
CCN(CC)CCOC(=O)C1(c2ccccc2)CCCC1 ... no (0)
CC(C(=O)O)c1cccc(Oc2ccccc2)c1 (stereo not drawn) ... no (0)
CCCCCCCCNC(C)C(O)c1ccc(SC(C)C)cc1 (stereo not drawn) ... yes (1)
CCC(C(=O)OCCOCCN(CC)CC)c1ccccc1 (stereo not drawn) ... no (0)
CCCCC(CC)COC(=O)c1ccc(N(C)C)cc1 (stereo not drawn) ... no (0)
O=[N+]([O-])c1ccc(/C=N\O)o1 ... no (0)

What classification did C#C[C@]1(O)CC[C@H]2[C@@H]3CCc4cc(OC)ccc4[C@H]3CC[C@@]21C end up with in this test?
no (0)

---

- MEASUREMENT_NOTES: qHTS of pediatric cancer cell lines to identify multiple opportunities for drug repurposing: Primary screen for NB-EBc1 cells (AID 1347095)
- CONDITION_PARAMETERS: NB-EBc1 neuroblastoma viability, CellTiter-Glo luminescence, 48 h; series mostly up to 46 µM
Records with an inconclusive call do not appear. Calls of active or inactive are those of the source. Calls follow the shape of the dose curve; as a rule, active = well fitted cell-killing curve with a large enough effect; inconclusive = small, poorly fitted or top-dose-only effect; inactive = no such curve, though single readings can be large or run the other way.
Please reply with one of these outcomes: class 1 = active, class 0 = inactive

A selection of reference data follows.
CCN(CC)CCNc1ccc(CO)c2sc3ccccc3c(=O)c12 ... class 1
Cc1cc2c(OCC(CNC(C)(C)C)OC(=O)c3ccccc3)cccc2[nH]1 (centres undefined) ... class 0

Could you check what this test reported for CC(=O)OCC1=C(C(=O)O)N2C(=O)[C@@H](NC(=O)CSc3ccncc3)[C@H]2SC1 ?
class 0

---

- MEASUREMENT_NOTES: Drug repurposing screens with cells derived from glioblastoma tumor samples (AID 1345199); also: % is scaled to controls: 0 for no effect and ±100 for the full control effect; nearly all actives have a fitted effect of over 40% in size
- CONDITION_PARAMETERS: GBM patient neurospheres viability, ATP luminescence, 48 h; at 46 µM (top of the series); tumour line A
Records with an inconclusive call do not appear.
ASSAY_READOUT: activity, negative = cell killing (%)
Give the quantity in %, number only.

Which measured activity, negative = cell killing value corresponds to CC(=O)Nc1ccc(CC(=O)O)cc1 ?
-20.1

Looking for the measured activity, negative = cell killing of C#C[C@]1(O)CC[C@H]2[C@@H]3CCC4=Cc5oncc5C[C@]4(C)[C@H]3CC[C@@]21C , can you help?
-25.3

Could you tell me which activity, negative = cell killing is on file for O=C(O)CCc1nc2ccccc2[nH]1 ?
-40.1

# query: activity, negative = cell killing of entry O=C1C(O)=C(O)C(=O)C(O)=C1O
-7.89

What does the data say about its activity, negative = cell killing? Entry: CC(=O)NO
-11.7

---

- MEASUREMENT_NOTES: Cell Viability - LYMP2-011 (AID 969);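 also: cells exposed to compound for 24 hours; 0% = DMSO only and full inhibition = 92 µM tetraoctylammonium bromide; nearly all actives have a fitted effect of over 60% in size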
- CONDITION_PARAMETERS: LYMP2-011 lymphoblastoid cells viability; series mostly up to 92.2 µM
- Source text: NIH Chemical Genomics Center [NCGC] NIH Molecular Libraries Screening Centers Network [MLSCN] National Institutes of Environmental Health Sciences [NIEHS] National Toxicology Program [NTP] We have developed a 1536-well cell-based assay for quantitative high throughput screening (qHTS) against a number of cell lines to determine in vitro cytotoxicity of small molecules. […] 8. Detection; Luminescence; Viewlux plate reader […]
Records with an inconclusive call do not appear. Calls of active or inactive are those of the source. The call rests on the fitted dose curve; in most records, active means well fitted cell-killing curve with a large enough effect; inconclusive means small, poorly fitted or top-dose-only effect; inactive means flat fitted curve, though single readings scatter.
ASSAY_READOUT: outcome

Past entries and their recorded results:
NC(=O)c1ccccc1O ... inactive
NCCNc1cccc2ccccc12 ... inactive
OC[C@H]1O[C@@H]2O[C@H]3[C@H](O)[C@@H](O)[C@@H](O[C@H]4[C@H](O)[C@@H](O)[C@@H](O[C@H]5[C@H](O)[C@@H](O)[C@@H](O[C@H]6[C@H](O)[C@@H](O)[C@@H](O[C@H]7[C@H](O)[C@@H](O)[C@@H](O[C@H]8[C@H](O)[C@@H](O)[C@@H](O[C@H]1[C@H](O)[C@H]2O)O[C@@H]8CO)O[C@@H]7CO)O[C@@H]6CO)O[C@@H]5CO)O[C@@H]4CO)O[C@@H]3CO ... inactive
C=C[C@H]1CN2CC[C@H]1C[C@@H]2[C@@H](O)c1ccnc2ccc(OC)cc12 ... inactive
CCCN(CCC)S(=O)(=O)c1ccc(C(=O)O)cc1 ... inactive

outcome for CCOc1ccc(NC(C)=O)cc1 ?
inactive

Recorded outcome for COc1cc([C@H]2Oc3cc([C@H]4Oc5cc(O)cc(O)c5C(=O)[C@@H]4O)ccc3O[C@@H]2CO)ccc1O , please?
inactive

---

- MEASUREMENT_NOTES: Cell Viability - Jurkat (AID 426);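 also: potency is read from the fitted curve at half-maximal effect; cells exposed to compound for 40 hours at 37 °C before ATP read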
- CONDITION_PARAMETERS: qHTS
Results filed as inconclusive are left out. Active and inactive are the calls of the source.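 The calls were made as follows: active = dose-dependent loss of cell ATP signal giving a full or clear fitted curve, ranked by lower potency value; inconclusive = weak partial curve or response only at the top dose; inactive = no loss of viability signal.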
# Potency listing for each entry below

// known answers, use as guide
CCCN(CCC)S(=O)(=O)c1ccc(C(=O)O)cc1 ... > 92 µM (inactive)
CCOc1ccc(NC(C)=O)cc1 ... > 92 µM (inactive)

Next molecule, please.
I am curious: what Potency value has been reported for NC(=O)c1ccccc1O ?
> 92 µM (inactive)

---

- Tested on: PC49
- MEASUREMENT_NOTES: qHTS profiling for inhibitors of Plasmodium falciparum proliferation (AID 504749); also: nearly all actives have a fitted effect of over 60% in size
- CONDITION_PARAMETERS: P. falciparum in erythrocytes, SYBR Green DNA, 72 h; series mostly up to 28.7 µM
- Procedure: NIH National Institute of Allergy and Infectious Diseases [NIAID] NIH Chemical Genomics Center [NCGC] […] Because mature erythrocytes lack DNA, only Plasmodium-derived DNA is detected. NCGC Assay Protocol Summary: The SYBR Green viability assay was adapted from a method described previously (Plouffe et al., 2008). […] The following morning, fluorescence intensity at 485(14) nm excitation and 535(25) nm emission wavelengths was measured on an EnVision (Perkin Elmer) plate reader. […]
Inconclusive results are not listed. Active and inactive are the calls of the source. Calls follow the shape of the dose curve; as a rule, active = well fitted inhibition curve with a large enough effect; inconclusive = small, poorly fitted or top-dose-only effect; inactive = flat fitted curve, though single readings scatter.
Just give me one of these, please: active, inactive

A selection of reference data follows.
CCC1Nc2cc(Cl)c(S(N)(=O)=O)cc2S(=O)(=O)N1 (stereo not given) ... inactive
CC1(COc2ccc(CC3SC(=O)NC3=O)cc2)CCCCC1 (stereo not given) ... inactive
CCc1ccc(C(=O)C(C)CN2CCCCC2)cc1 (stereo not given) ... inactive
CC(=O)Nc1ncc([N+](=O)[O-])s1 ... inactive

For c1ccc(CC2=NCCN2)cc1 , what call appears in the results of this test?
inactive

Answer briefly: the call reported for NC(=S)N/N=C/c1cccnc1 in this assay.
inactive

Give the logged outcome of this assay for the following compound: CC(=O)O[C@H]1C[C@@H]2CC[C@@H]3[C@H](CC[C@@]4(C)[C@H]3C[C@H]([N+]3(C)CCCCC3)[C@@H]4OC(C)=O)[C@@]2(C)C[C@@H]1N1CCCCC1
inactive

Status in this test for O=C(O)C1(C(=O)O)CCC1.[NH2-].[NH2-].[Pt+2] ?
inactive

Outcome? COc1cc(C)nc(-n2nc(C)cc2OC)n1
inactive

# outcome recorded in this test, key = Nc1ccc(C(=O)NCC(=O)O)cc1
inactive

// return assay outcome for O=S(c1cc(Cl)cc(Cl)c1O)c1cc(Cl)cc(Cl)c1O
active

Look up the recorded call for C[C@@H](O)[C@H]1C(=O)N2C(C(=O)O)=C(S[C@@H]3CN[C@H](CNS(N)(=O)=O)C3)[C@H](C)[C@H]12 in this test.
inactive

Hi, sorry to bother you, what did the test record for COc1cc(NS(=O)(=O)c2ccc(N)cc2)ncn1 ?
inactive

---

- MEASUREMENT_NOTES: qHTS of pediatric cancer cell lines to identify multiple opportunities for drug repurposing: Primary screen for control Hh wild type fibroblast cells (AID 1347106);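 also: % is scaled to controls: 0 for no effect and ±100 for the full control effect; a drop in luminescence marks cytotoxicity and a rise apparent proliferation; nearly all actives have a fitted effect of over 55% in size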
- CONDITION_PARAMETERS: Hh wild-type fibroblast viability, CellTiter-Glo luminescence, 48 h; series mostly up to 46 µM
Inconclusive results are not listed. Calls of active or inactive are those of the source. Calls come from the whole dose curve; as a rule, active = well fitted cell-killing curve with a large enough effect; inconclusive = small, poorly fitted or top-dose-only effect; inactive = flat fitted curve, though single readings scatter.
A correct response names exactly one class from active, inactive

Example cases with answers are listed next.
O=C(O)CCC(=O)Nc1ccc(S(=O)(=O)Nc2nccs2)cc1 ... inactive
O=C(CN1CCN(Cc2ccc3c(c2)OCO3)CC1)N1c2ccccc2Sc2ccccc21 ... inactive
C=C[C@@]1(C)CC(=O)[C@]2(O)[C@@]3(C)[C@@H](O)CCC(C)(C)[C@@H]3[C@H](O)[C@H](OC(C)=O)[C@@]2(C)O1 ... inactive

How did this test come out for CCCCCCCCCCCCCC(=O)OC(C)C ?
inactive

I'd appreciate the recorded outcome for C[C@]12CCC(=O)C=C1C=C[C@@H]1[C@@H]2CC[C@@]2(C)[C@H]1CC[C@@]21CCC(=O)O1 from this test.
inactive

Which outcome was assigned to CN1CCN(c2c(F)cc3c(=O)c(C(=O)O)cn4c3c2SCC4)CC1 in this test?
inactive

Test call, this compound: CCCCCCCCCCCCOCCOCCOCCOCCOCCOCCOCCOCCOCCO
inactive

// param item: O[C@@H](c1cc(C(F)(F)F)nc2c(C(F)(F)F)cccc12)[C@H]1CCCCN1 ; yields the recorded call
inactive

Recorded call for CCNC(=O)/C=C/c1cccc(Br)c1 ?
inactive
